Target: T1, Strep-tagged mouse RAD51 (mouse, UniProt Q08297 1-339)
T1 construct: mouse RAD51 recombinase; (His)6-tagged mouse RAD51 was used in the Benzonase protection and TPM assays; also called RAD51 recombinase
T1 sequence (looked up): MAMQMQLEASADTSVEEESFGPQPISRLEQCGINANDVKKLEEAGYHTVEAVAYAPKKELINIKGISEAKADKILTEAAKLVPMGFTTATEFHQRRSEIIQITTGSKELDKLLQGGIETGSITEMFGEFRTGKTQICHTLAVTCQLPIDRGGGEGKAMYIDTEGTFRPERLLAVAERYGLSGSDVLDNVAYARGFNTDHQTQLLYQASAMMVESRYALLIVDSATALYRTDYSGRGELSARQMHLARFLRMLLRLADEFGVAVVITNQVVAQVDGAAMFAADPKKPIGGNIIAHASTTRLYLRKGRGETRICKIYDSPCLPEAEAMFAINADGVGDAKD
Assay: pull-down; (His)6-SUMO-tagged MCPH1 fragments (2 μg) with Strep-tagged RAD51 or DMC1 (2 μg), same procedure (buffer D, Benzonase, Talon resin); SDS-PAGE and western blot with RAD51 or DMC1 antibody
Conditions: both partners purified

binder	binding result
(His)6-SUMO-tagged mouse MCPH1 fragment, amino acids 287-383 (central region containing the nuclear localization signal) (domain or fragment, UniProt Q7TT79 287-383, looked up, mouse MCPH1, residues 287-383, containing the nuclear localization signal; also called truncated MCPH1 variant; source: E. coli BL21*(DE3)(pLys), purified (Ni-NTA); not shown: His6, N-terminal, kept; SUMO, N-terminal, kept) DSPSKESINCQKDATGAVADSERKQAAGVSQGVPDEKLCLSPTMSIIEEHQVRLGPKNSSAKRKRAADLGSSPKGKLKKRYKRKSALAIQLFKSDQS	binds
(His)6-SUMO-tagged mouse MCPH1 fragment, amino acids 1-190 (N-terminus, containing BRCT1) (domain or fragment, UniProt Q7TT79 1-190, looked up, mouse MCPH1, residues 1-190, containing BRCT1; also called truncated MCPH1 variant; source: E. coli BL21*(DE3)(pLys), purified (Ni-NTA); not shown: His6, N-terminal, kept; SUMO, N-terminal, kept) MEASGGVGGAFLKDVVAYVEVWSSKGTENYSRTFAKQLEDMGATVSKTLNKQVTHVIFKDGYQSTWDKAQKTGAKLVSVLWVEKCRMAGALVDESLFPAVNTDEHLPNLSRKKHKCMQPKDFILKTPENDKRLQKKFEKMAEELQRQKAALDDDVPVLLFESPRSLVYSSPVNVMKRRLQDMKEKRENLS	binds
(His)6-SUMO-tagged mouse MCPH1 fragment, amino acids 628-822 (C-terminus, containing BRCT2 and BRCT3) (domain or fragment, UniProt Q7TT79 628-822, looked up, mouse MCPH1, residues 628-822, containing BRCT2 and BRCT3; also called truncated MCPH1 variant; source: E. coli BL21*(DE3)(pLys), purified (Ni-NTA); not shown: His6, N-terminal, kept; SUMO, N-terminal, kept) EKEEKPTRTLVMTSMPSEKQTLIIQVVSTLKGFSFAPEVCETTTHVLVGKSARTLNVLMGIARGCWILSYEWVLLSLELGHWISEEPFELSETFPAAPICRLERHLSTQQYQGTLFANQPKMFIAPASSPPRAKLCELVLLCGGQVSPAPQLASLIIGPYKGKKKARIQYLSEKWVLDSITQHKICDFNNYQLLQ	binds
(His)6-SUMO-tagged mouse MCPH1 fragment, amino acids 384-476 (central region containing a Condensin-II binding region) (domain or fragment, UniProt Q7TT79 384-476, looked up, also called truncated MCPH1 variant; source: E. coli BL21*(DE3)(pLys), purified (Ni-NTA); not shown: His6, N-terminal, kept; SUMO, N-terminal, kept) PPSTIRLIPGTPDVEASSYEDYFSPDNLKERNSERLPPEAQQLASPSLFHCRGLSKWERRNMLEMCDFTCIGEKHRSISSISDLISKSASSLE	binds

From: paper PMC7498314
